# tgt: Metallo-beta-lactamase type 2 (Klebsiella pneumoniae) (UniProt C7C422)
# Sequence (C7C422 whole entry, looked up): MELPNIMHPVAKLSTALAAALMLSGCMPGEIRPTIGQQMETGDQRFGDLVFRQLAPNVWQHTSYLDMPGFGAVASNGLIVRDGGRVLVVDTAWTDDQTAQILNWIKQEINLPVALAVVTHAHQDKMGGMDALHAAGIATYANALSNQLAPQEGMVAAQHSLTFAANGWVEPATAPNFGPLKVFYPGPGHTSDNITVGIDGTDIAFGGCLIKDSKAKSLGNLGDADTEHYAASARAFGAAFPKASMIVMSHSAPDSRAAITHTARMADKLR
# assayProcedure: qHTS to identify inhibitors of the New Delhi Metallo-beta-lactamase (NDM): assay validation screen against the NCATS LOPAC Collection (AID 1794843);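 also: nitrocefin turnover by NDM-1 measured as 485 nm absorbance at plateau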
# experimentalParameters: NDM-1 enzyme, nitrocefin hydrolysis, absorbance 485 nm; series mostly up to 38.4 µM
# Source text: Assay Submitter (PI): James Inglese Ph.D., Patricia Dranchak Ph.D., Mahesh Aitha Ph.D. Assay Development and Screening Technology Laboratory (ADST) National Center for Advancing Translational Sciences (NCATS), Rockville, MD National Institute of Health (NIH), Bethesda, Maryland […] 6; Detector; Absorbance at 485 nm (bandwidth = 5 nm, 25 flashes/well) on Tecan Infinity […] 6; Default reader settings were applied for absorbance read at 485 nm, bandwidth = 5 nm, 25 flashes/well. […]
Records with an inconclusive call do not appear. Active and inactive are the calls of the source. Calls follow the shape of the dose curve; as a rule, active = well fitted curve in the direction sought with a large enough effect; inconclusive = small, poorly fitted or top-dose-only effect, or another doubt; inactive = no such curve, though single readings can be large or run the other way.
Lab note: assign the record to one of active, inactive

compound	class
NC(=O)c1cc[n+](CC2=C(C(=O)O)N3C(=O)[C@@H](NC(=O)[C@@H](c4ccccc4)S(=O)(=O)[O-])[C@H]3SC2)cc1	inactive

Req: Tell me the assay call for CN(C)CCC(c1ccc(Br)cc1)c1ccccn1 (configuration not stated) please.
Resp: inactive

Req: Tell me the assay call for "CCCCCCN(CCCCCC)C(=O)Cc1c(-c2ccc(F)cc2)[nH]c2ccccc12" please.
Resp: inactive

Req: Tell me the assay call for "CC[n+]1c(/C=C/C=C2/N(C)c3ccccc3C2(C)C)sc2ccccc21" please.
Resp: inactive

Req: Tell me the assay call for "CC(C)NC[C@H](O)COc1ccc(CC(N)=O)cc1" please.
Resp: inactive

Req: Tell me the assay call for "CCCn1c(=O)c2[nH]c(-c3ccc(S(=O)(=O)O)cc3)nc2n(CCC)c1=O" please.
Resp: inactive

Req: Tell me the assay call for Nc1ncnc2c1nc(Br)n2C1OC2COP(=O)(O)O[C@@H]2C1O (some centres not stated) please.
Resp: inactive

###

# tgt: DNA polymerase III PolC-type (Bacillus subtilis (strain 168))
# assayProcedure: qHTS Validation Assay for the Inhibitors of DNA Replication in Gram-Positive Bacteria (AID 485295)
# experimentalParameters: Gram-positive bacterial DNA replication assay; series mostly up to 57.1 µM
Active and inactive are the calls of the source. Calls come from the whole dose curve; as a rule, active = well fitted inhibition curve with a large enough effect; inconclusive = small, poorly fitted or top-dose-only effect; inactive = flat fitted curve, though single readings scatter.
Lab note: assign the record to one of label 1 for active, label 0 for inactive

compound	class
CCCn1c(=O)c2[nH]c(C3CCCC3)nc2n(CCC)c1=O	label 0
CN(CC[C@@H](Oc1ccc(C(F)(F)F)cc1)c1ccccc1)CC(=O)O	label 0

Req: Tell me the assay call for "CCCc1c(-c2ccc(O)cc2)nn(-c2ccc(O)cc2)c1-c1ccc(O)cc1" please.
Resp: label 0

Req: Tell me the assay call for CCCN(CCc1ccccc1)C1CCc2c(O)cccc2C1 (stereo not given) please.
Resp: label 0

Req: Tell me the assay call for "CC(=O)NCCc1c[nH]c2ccc(O)cc12" please.
Resp: label 0

Req: Tell me the assay call for "Oc1ccc(/C=C/c2ccc(/C=C/c3ccc(O)cc3)c(Br)c2)cc1" please.
Resp: label 0

Req: Tell me the assay call for "C=C1C[C@@]23CC[C@H]4[C@@](C)(CCC[C@@]4(C)C(=O)O)[C@@H]2CC[C@]1(O)C3" please.
Resp: label 0

Req: Tell me the assay call for "NCCCNCCCCNCCCN" please.
Resp: label 0

Req: Tell me the assay call for "O=C(O)C1=CCNCC1" please.
Resp: label 0

Req: Tell me the assay call for CC1=C(C(=O)O)N2C(=O)[C@@H](NC(=O)C(N)C3=CCC=CC3)[C@H]2SC1 (stereo not given in full) please.
Resp: label 0

Req: Tell me the assay call for CCCCOc1cc(CC2CNC(=O)N2)ccc1OC (stereo not given) please.
Resp: label 0

Req: Tell me the assay call for "C=CC[C@H](N)C(=O)O" please.
Resp: label 0

Req: Tell me the assay call for NCC(O)(CS(=O)(=O)O)c1ccc(Cl)cc1 (stereo not given) please.
Resp: label 0

Req: Tell me the assay call for "C=CCn1c(=O)c2c(nc(-c3ccc(S(=O)(=O)O)cc3)n2C)n(C)c1=O" please.
Resp: label 0

Req: Tell me the assay call for "O=C(O)C1=CC(=C(c2ccc(O)c(C(=O)O)c2)c2ccc(O)c(C(=O)O)c2)C=CC1=O" please.
Resp: label 1

Req: Tell me the assay call for "COc1cc(CC(=O)O)ccc1O" please.
Resp: label 0

Req: Tell me the assay call for "COCc1nc2c([nH]1)c(=O)n(C)c(=O)n2CC(C)C" please.
Resp: label 0

Req: Tell me the assay call for "COc1ccccc1N1CCN(CCCNc2c(C)c(=O)n(C)c(=O)n2C)CC1" please.
Resp: label 0

Req: Tell me the assay call for Cc1nc2n(c(=O)c1CCN1CCC(c3noc4cc(F)ccc34)CC1)CCCC2O (stereo not given) please.
Resp: label 0

Req: Tell me the assay call for Nc1ncnc2c1nc(Br)n2C1OC2COP(=O)(O)O[C@@H]2C1O (stereo not given in full) please.
Resp: label 0

Req: Tell me the assay call for "Nc1ccc(-c2ccc3ccccc3n2)cc1" please.
Resp: label 0

Req: Tell me the assay call for CN(C)CCC(c1ccc(Br)cc1)c1ccccn1 (stereo not given) please.
Resp: label 0

Req: Tell me the assay call for COc1ccc2c(c1)CCC1C2CC[C@@]2(C)C1CC[C@@H]2NCCCCCCN1C(=O)C=CC1=O (stereo not given in full) please.
Resp: label 0

Req: Tell me the assay call for "N[C@H]1CONC1=O" please.
Resp: label 0

Req: Tell me the assay call for NC1C=CC=C(C(=O)O)C1 (stereo not given) please.
Resp: label 0
